Biological target: P2X7 receptor (Homo sapiens (Human))
Sequence (Q99572 whole entry): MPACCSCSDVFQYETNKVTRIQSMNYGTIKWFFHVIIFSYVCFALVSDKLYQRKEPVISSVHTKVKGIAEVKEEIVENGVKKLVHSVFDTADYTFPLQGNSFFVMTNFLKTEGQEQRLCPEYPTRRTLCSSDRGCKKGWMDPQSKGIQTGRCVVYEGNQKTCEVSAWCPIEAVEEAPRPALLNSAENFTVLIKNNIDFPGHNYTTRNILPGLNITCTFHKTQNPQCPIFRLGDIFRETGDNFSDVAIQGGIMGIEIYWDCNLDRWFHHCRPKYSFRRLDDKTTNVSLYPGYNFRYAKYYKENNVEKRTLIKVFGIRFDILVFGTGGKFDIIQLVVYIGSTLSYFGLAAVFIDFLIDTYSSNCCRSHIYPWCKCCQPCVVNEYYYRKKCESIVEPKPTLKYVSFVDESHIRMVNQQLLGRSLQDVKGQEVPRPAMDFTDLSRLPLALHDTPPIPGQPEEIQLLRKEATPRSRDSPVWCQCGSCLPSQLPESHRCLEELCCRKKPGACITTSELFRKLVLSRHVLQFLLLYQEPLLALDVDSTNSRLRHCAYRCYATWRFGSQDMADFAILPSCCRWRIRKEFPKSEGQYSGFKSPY
Assay: P2X7 FLIPR assay: antagonism of BzATP response in 293 HEK cells stably expressing P2X7 receptor
Settings: FLIPR fluorescence (Fluo-4), agonist BzATP, 293 HEK cells stably transfected with P2X7 receptor
Experimental: Cells were plated to cell density of approximately 15,000 cells/well in 384-well assay plates (50 μl/well) with 1.5% low serum media (DMEM, 1.5% BCS, 1% L-glut (2 mM), 1% P/S). […] Compound mixtures (A) were added to assay plates containing cells and placed at room temperature for 30 minutes, then BzATP (B) was added. Fluorescence was read using the Tetra FLIPR® (Molecular Devices, Inc., Sunnyvale, Calif., USA) and IC50 values were calculated by standard methods to determine antagonist activity.
pIC50: −log10 of the molar value.
# pIC50 annotations
Recorded Metric: pIC50

1. O=C(NCC(c1cnc(C(F)(F)F)nc1)N1CCC(F)(F)CC1)c1c(Cl)ccc(F)c1Cl (single isomer, unassigned; (+)) [(+)2,6-dichloro-N-[2-(4,4-difluoro-1-piperidyl)-2-[2-(triflu]; 8.15
2. Cc1ccc(C(CNC(=O)c2cc(C)ccc2Cl)N2CCOCC2)cc1 (centres unmarked); 7.42
3. O=C(NCC(c1cnc(C(F)(F)F)nc1)N1CCC(F)(F)CC1)c1c(F)cc(Cl)cc1Cl (single isomer, unassigned; (+)) [(+)2,4-dichloro-N-[2-(4,4-difluoro-1-piperidyl)-2-[2-(triflu]; 8.33
4. COc1cccc(C(=O)NCC(c2cnc(C)nc2)N2CCC(F)(F)CC2)c1Cl (single isomer, unassigned; (-)) [(−)2-chloro-N-[2-(4,4-difluoro-1-piperidyl)-2-(2-methylpyrim]; 7.96
5. Cc1ncc(C(CNC(=O)c2cccc(OC(F)F)c2Cl)N2CCC(F)(F)CC2)cn1 (single isomer, unassigned; (-)) [(−)2-chloro-3-(difluoromethoxy)-N-[2-(4,4-difluoro-1-piperid]; 7.43
